tested.system: T1, Human receptor grade IGFBP-3 (insulin-like growth factor binding protein 3) (human, UniProt P17936 28-291)
T1 construct: Bought recombinant protein, overlaid in solution on the VN-peptide array
T1 sequence (P17936 28-291 limits assumed): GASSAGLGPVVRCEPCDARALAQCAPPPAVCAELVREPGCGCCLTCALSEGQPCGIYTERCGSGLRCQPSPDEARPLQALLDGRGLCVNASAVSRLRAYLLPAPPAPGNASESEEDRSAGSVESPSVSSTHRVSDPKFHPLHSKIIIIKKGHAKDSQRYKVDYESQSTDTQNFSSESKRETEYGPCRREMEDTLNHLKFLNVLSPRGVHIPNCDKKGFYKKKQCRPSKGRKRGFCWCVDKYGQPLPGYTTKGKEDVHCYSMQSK
experiment.notes: VN-peptide array, ligand overlay, immunoblot/ECL, TotalLab spot intensity
Protocol: Methanol or ethanol was used to enhance the rehydration of peptide spots that might be hydrophobic. The peptides spotted onto the membranes were activated by incubating in 3 mL of 70% ethanol for five mins. The membranes were subsequently washed three times, 10 minutes each, in 10 mL TBS (Tris Buffered Saline; 8 g NaCl, 0.2 g KCl and 6.1 g Tris Base into 1000 mL of milliQ water, pH 7) with gentle rocking. […] The binding of the ligands to peptides within the membrane was detected using immunoblotting. […]
Where no end group is shown, it is not given here.
Collected Intensity (against -ve control) values appear next to each entry.

Solved cases (4 shown):
1. RVNLRTRRVDTVDPPY (not fully specified (N-terminus); also: free end capped by acetylation, immobilised on cellulose membrane (SPOT synthesis)) [VN-peptide 8B (array grid J5)]
7 fold over negative controls
2. FAMMQRDSWEDIFELL (not fully specified (N-terminus); also: free end capped by acetylation, immobilised on cellulose membrane (SPOT synthesis)) [VN-peptide 5B (array grid G6)]
4.5 fold over negative controls
3. MQRDSWEDIFELLFWG (not fully specified (N-terminus); also: free end capped by acetylation, immobilised on cellulose membrane (SPOT synthesis)) [VN-peptide 5C (array grid G7)]
4.5 fold over negative controls
4. KGKQYWEYQFQHQPSQ (not fully specified (N-terminus); also: free end capped by acetylation, immobilised on cellulose membrane (SPOT synthesis)) [VN-peptide 4A (array grid F12)]
6 fold over negative controls

Intensity (against -ve control) lookup needed for VDAALALPAHSYSGRE (not fully specified (N-terminus); also: free end capped by acetylation, immobilised on cellulose membrane (SPOT synthesis)) [VN-peptide 3A (array grid F5)] , thanks. 1 fold over negative controls

Intensity (against -ve control) lookup needed for Ac-LRTRRVDTVDPPYPRS (also: immobilised on cellulose membrane) [VN-peptide 8C (array grid J6)] , thanks. 10 fold over negative controls

Intensity (against -ve control) lookup needed for CQCDELCSYYQSCCTD (not fully specified (N-terminus); cysteine pairing not given here; also: free end capped by acetylation, immobilised on cellulose membrane (SPOT synthesis)) [VN-peptide 1A (array grid A13)] , thanks. 10 fold over negative controls
